Assayed System: Acetylcholinesterase (Rattus norvegicus, UniProt P37136)
Sequence (P37136 whole entry): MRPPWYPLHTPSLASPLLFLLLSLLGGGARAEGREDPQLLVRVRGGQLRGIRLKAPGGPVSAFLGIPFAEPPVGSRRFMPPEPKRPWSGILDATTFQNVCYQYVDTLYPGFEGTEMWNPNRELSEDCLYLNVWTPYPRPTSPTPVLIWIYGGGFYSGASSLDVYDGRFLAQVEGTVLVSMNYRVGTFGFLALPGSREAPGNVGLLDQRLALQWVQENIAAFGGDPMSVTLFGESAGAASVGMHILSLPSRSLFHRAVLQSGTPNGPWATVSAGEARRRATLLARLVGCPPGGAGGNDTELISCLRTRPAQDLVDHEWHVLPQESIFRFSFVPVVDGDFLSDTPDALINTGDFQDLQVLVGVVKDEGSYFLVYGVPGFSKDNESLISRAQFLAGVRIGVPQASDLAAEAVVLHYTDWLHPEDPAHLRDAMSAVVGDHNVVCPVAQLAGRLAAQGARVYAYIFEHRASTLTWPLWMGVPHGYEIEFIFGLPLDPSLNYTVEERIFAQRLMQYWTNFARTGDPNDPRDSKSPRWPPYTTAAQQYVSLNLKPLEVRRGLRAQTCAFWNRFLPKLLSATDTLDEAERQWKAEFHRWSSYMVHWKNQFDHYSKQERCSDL
In plain terms, low IC50, meaning strictly below 1 µM, gives Criterion met, and everything else gives Criterion not met.

Worked examples follow.
Req: Consider the compound CCN(CCCCCCOc1cccc(-c2cc(=O)c3c(O)c(OC)c(OC)cc3o2)c1)Cc1ccccc1OC . Is its IC50 strictly less than 1 µM?
Resp: Criterion not met

Req: Is 1 µM strictly greater than the compound's reported IC50? compound: COc1cc2oc(-c3cccc(OCCCN(C)Cc4ccccc4)c3)cc(=O)c2c(OC)c1OC
Resp: Criterion not met

Req: Is IC50 strictly under 1 µM for the entry COc1ccccc1CN(C)CCCCCCOc1cccc(-c2cc(=O)c3c(O)c(OC)c(OC)cc3o2)c1 ?
Resp: Criterion not met

Req: For COc1cc2oc(-c3cccc(OCCN4CCN(C)CC4)c3)cc(=O)c2c(OC)c1OC , is the recorded IC50 below the cut-off of 1 µM?
Resp: Criterion not met

Req: IC50 under 1 µM? Item: CCN(CCCOc1cccc(-c2cc(=O)c3c(OC)c(OC)c(OC)cc3o2)c1)Cc1ccccc1OC
Resp: Criterion met

Req: Input COc1cc2oc(-c3ccc(OCCCCCCN4CCN(Cc5ccccc5)CC4)cc3)cc(=O)c2c(OC)c1OC ; condition: IC50 strictly below 1 µM. Does it hold?
Resp: Criterion not met

Req: Find out if reported IC50 for CCN(CCCOc1ccc(-c2cc(=O)c3c(OC)c(OC)c(OC)cc3o2)cc1)Cc1ccccc1OC is less than 1 µM
Resp: Criterion met

Req: Confirm or reject: IC50 of COc1cc2oc(-c3cccc(OCCN4CCN(Cc5ccccc5)CC4)c3)cc(=O)c2c(OC)c1OC lies strictly below 1 µM
Resp: Criterion not met

---
Req: Is it true that IC50 reported for COc1cc2oc(-c3cccc(OCCCCN(C)Cc4ccccc4)c3)cc(=O)c2c(OC)c1OC is less than 1 µM?
Resp: Criterion not met

Req: In the record for CCN(CCCOc1cccc(-c2cc(=O)c3c(OC)c(OC)c(OC)cc3o2)c1)Cc1ccccc1 , is IC50 less than 1 µM?
Resp: Criterion not met

Reference source: ChEMBL document CHEMBL3576829
